Tested on: HOP-62 NSCLC
Assay: NCI tumour cell line growth inhibition, 48 h
readout type: TGI (µM)
Give the number; µM is assumed, so skip it.

The examples below pair each entry with its known result.
{"compound": "CC(=O)/C(=C\\c1ccc(Cl)c(Cl)c1)C(=O)C(C)CN(C)C (stereo not given)", "readout type": "TGI", "observed value": 41.1}
{"compound": "CC1COCC(C)N1C1=C(Cl)C(=O)c2ccccc2C1=O (stereo not given)", "readout type": "TGI", "observed value": 27.4}
{"compound": "C/C(Nc1ccc(Cl)cc1Cl)=C1/CCOC1=O", "readout type": "TGI", "observed value": 70.8}

Now for another entry.
Query :: Given Cc1cc(C(O)CN(C)C)cc2c1ccc1cc(C(C)C)ccc12 (stereo not given) , state its recorded TGI.
Result :: 3.08

====

Test system: CCRF-CEM leukemia
Test: NCI tumour cell line growth inhibition, 48 h
Measured TGI by item

# annotated cases, reported TGI shown
{"compound": "CCOP(=O)(OCC)/C(C#N)=C/c1cccn1Cc1ccccc1", "TGI": "> 100 µM"}
{"compound": "O=C1CC(n2cccc2)c2c(Br)sc(Br)c21 (stereo not drawn)", "TGI": "26.8 µM"}
{"compound": "O=C1c2ccccc2C(=O)N1c1nc(-c2ccc(Cl)cc2)cc(N2N=C(c3ccc(Br)cc3)CC2c2ccccc2)n1 (stereo not drawn)", "TGI": "> 29.6 µM"}
{"compound": "COC(=O)C1=C(O)C(C(=O)OC)[C@]2(O)[C@H](C(=O)OC)[C@H]1C[C@@H](c1ccc([N+](=O)[O-])cc1)[C@H]2C(=O)OC (stereo partly drawn)", "TGI": "67 µM"}
{"compound": "CO[C@H]1C[C@H](O[C@H]2CC[C@]3(C=O)[C@H]4CC[C@]5(C)[C@@H](C6=CC(=O)OC6)CC[C@]5(O)[C@@H]4CC[C@]3(O)C2)O[C@H](C)[C@H]1O", "TGI": "> 100 µM"}

Query :: Bench note: what TGI did COc1ccc(OC)c2c3c(ccc12)C(c1ccccc1)OC3=O (stereo not drawn) show?
Result :: > 100 µM

Query :: Recorded TGI of CC1(C)OC2C(COS(N)(=O)=O)SC(n3cnc4cncnc43)C2O1 (stereo not drawn) , please.
Result :: > 100 µM

Query :: Could you share which TGI value was measured for CC1=C(C(=O)Nc2ccc(Cl)c(Cl)c2)C(c2ccccc2O)NC(=O)N1 (stereo not drawn) ?
Result :: > 50 µM

Query :: Fill in the blank: the reported TGI of `Cc1ccc(S(=O)(=O)n2cc(C#N)c(C#N)c2)cc1` is ____.
Result :: 92.1 µM

Query :: Fill in the blank: the reported TGI of CO[C@@]12[C@@H]3NC3CN1C1=C(C(=O)C(N)=C(C)C1=O)[C@@H]2COC(N)=O (stereo partly drawn) is ____.
Result :: > 63.5 µM

Query :: Need TGI, item `CC(=O)Oc1ccc(/C=N/NC(N)=S)nc1`
Result :: 9.43 µM

Query :: So what does the record say about TGI for CCOC(=O)c1cnccc1CC1(C#N)c2ccccc2C=CN1C(=O)c1ccccc1 (stereo not drawn) ?
Result :: > 100 µM

Query :: Given the entry `COc1ccc(CCc2cc(OC)c(OC)c(OC)c2)cc1` , report its measured TGI.
Result :: 12.4 µM
